Assay: MRT (0 to t) in rat at 5 mg/kg, iv measured upto 24 hrs by LC-MS/MS analysis
Assay type: ADME, organism-based
Settings: in vivo

chemical-smiles: Clc1ccc(COn2nnnc2-c2ccc(Cl)cc2)cc1
MRT last at 24 h: 16.3 min

====

Test: Kinetic solubility of the compound in phosphate buffer at pH 6.5 after 30 mins by nephelometry
Assay type: physicochemical
Settings: read-out: Kinetic_solubility
Measured solubility kinetic at 0.5 h, listed per entry.
property-measured: solubility kinetic at 0.5 h

chemical-smiles: Clc1ccc(-c2nnnn2OCc2cccc(Cl)c2)cc1
reported-measurement: < 1.6 µg/mL
--
chemical-smiles: Clc1ccc(COn2nnnc2-c2ccc(Cl)cc2)cc1
reported-measurement: < 1.6 µg/mL

====

Measured pIC50, listed per entry.
Tested on: PC-3
Assay: Antiproliferative activity against human PC-3 cells measured after 3 days by celltiter-glo luminescence assay
Format: functional, cell-based
Conditions: PC-3, 72 h
pIC50: −log10 of the molar value.

compound: Clc1ccc(-c2nnnn2OCc2ccnc(Cl)c2)cc1
pIC50: 4.85
//
compound: COc1ccc(-c2nnnn2OC(F)(F)c2ccccc2)cc1
pIC50: < 5.00
//
compound: Clc1ccc(-c2nnnn2OCc2ccc(Cl)s2)cc1
pIC50: < 4.00
//
compound: Clc1ccc(-c2nnnn2OCc2ccc(Cl)c(Cl)c2)cc1
pIC50: < 4.22
//
compound: Clc1ccc(COn2nnnc2-c2cccc(Cl)c2)cc1
pIC50: < 4.00
//
compound: CNC(=O)c1ccc(N2C(=S)N(c3ccc(C#N)c(C(F)(F)F)c3)C(=O)C2(C)C)cc1F [ENZALUTAMIDE]
pIC50: 4.38
//
compound: Clc1cccc(COn2nnnc2-c2cccnc2)c1
pIC50: < 5.00
//
compound: Fc1ccc(-c2nnnn2OC(F)(F)c2ccc(Cl)cc2)cc1
pIC50: < 5.00
//
compound: Clc1ccc(-c2nnnn2OCC2CCCCC2)cc1
pIC50: < 5.00
//
compound: Clc1ccc(/C=N\OCc2ccc(Cl)cc2)cc1
pIC50: < 5.00
//
compound: Fc1ccc(-c2nnnn2OCc2ccc(Cl)s2)cc1
pIC50: < 4.00
//
compound: FC(F)(On1nnnc1-c1ccc(Cl)cc1)c1ccccc1
pIC50: < 5.00

====

Test: AUC (0 to infinity) in rat at 5 mg/kg, iv measured upto 24 hrs by LC-MS/MS analysis
Type: ADME, organism-based
Design: time < 24 hrs, dose 5 mg/kg, route iv
Conditions: in vivo
property-measured: AUC(0-inf)

chemical-smiles: Clc1ccc(COn2nnnc2-c2ccc(Cl)cc2)cc1
reported-measurement: 1.1 µg·h/mL

====

Assay: Antiproliferative activity against Ar-luc mouse Adipose stromal cell measured after 3 days by celltiter-glo luminescence assay
Format: toxicity, cell-based
Settings: Ar-luc mouse adipose stromal cells
Lab note: compare IC50 at 3 days with 20 µM, writing label 1 if less and label 0 if equal or more.

chemical-smiles: Fc1ccc(COn2nnnc2-c2ccc(Cl)cc2)cc1
category-label: label 1

chemical-smiles: Clc1ccc(-c2nnnn2OCc2ccnc(Cl)c2)cc1
category-label: label 1

chemical-smiles: Fc1ccc(-c2nnnn2OCc2ccc(Cl)c(Cl)c2)cc1
category-label: label 0

chemical-smiles: COc1ccc(-c2nnnn2OCc2ccc(Cl)cc2)cc1
category-label: label 0

chemical-smiles: Clc1ccc(-c2nnnn2OCc2ccc(Br)cc2)cc1
category-label: label 1

chemical-smiles: Fc1ccc(-c2nnnn2OCc2ccc(Cl)s2)cc1
category-label: label 0

chemical-smiles: Clc1ccc(COn2nnnc2-c2ccc(Cl)cc2)cc1
category-label: label 0

chemical-smiles: Clc1ccc(COn2nnnc2-c2cccc(Cl)c2)cc1
category-label: label 0

chemical-smiles: Clc1ccc(-c2nnnn2OCc2ccc(Cl)s2)cc1
category-label: label 0

chemical-smiles: Clc1ccc(COn2nnnc2-c2ccc(Cl)cc2Cl)cc1
category-label: label 0

Attribution: ChEMBL document CHEMBL5331078
